Test system: Rattus norvegicus
protocol summary: Gastric antisecretory activity against gastric secretion in the pylorus-ligated rat at a dose of 60 mg/Kg
Assay type: functional, Stomach
// assign true (1) if Activity falls strictly below 50%, else false (0) (ties count as false (0))

Before answering, review these 4 worked examples.
Cl.N=C(N)Nc1nc(-c2c[nH]c3ccc(Br)cc23)cs1: true (1)
Cl.N=C(N)Nc1nc(-c2ccc(O)c(O)c2)cs1: true (1)
Cc1[nH]ccc1-c1nc(N=C(N)N)sc1C.Cl: true (1)
Br.COc1ccc(-c2csc(N=C(N)N)n2)cc1: false (0)

Ask: Threshold test, Activity < 50%: "Cl.N=C(NCc1ccccc1)Nc1nc(-c2c[nH]c3ccc(Br)cc23)cs1"
Result: false (0)

----------
Test system: Potassium-transporting ATPase (Canis familiaris)
protocol summary: Percent inhibition of gastric proton-pump enzyme H+/K+ ATPase was determined at 50 uM
test settings: Canis lupus familiaris, Stomach
observed property: inhibition (%)
Note: unit % is implicit; provide only the numeric part.

Solved cases (4 shown):
CCCCCC/N=C(\NC)Nc1nc(-c2c[nH]c(C)c2)cs1: 68
Cc1cc(-c2nc(NC(=N)NCc3ccccc3)sc2C)c[nH]1: 83
COc1ccc(-c2csc(NC(=N)NCc3ccccc3)n2)cc1: 24
Cc1cc(-c2csc(C)n2)c[nH]1: 0

Record "N=C(NCc1ccccc1)Nc1nc(-c2ccccc2)cs1" ; system Potassium-transporting ATPase (Canis familiaris); inhibition = -1

----------
assayed target: Potassium-transporting ATPase (Canis familiaris)
protocol summary: Inhibitory activity against dog gastric proton-pump enzyme H+/K+ ATPase
observed property: IC50 (µM)
Note: unit µM is implicit; provide only the numeric part.

Cc1c(-c2csc(N=C(N)N)n2)ccn1S(=O)(=O)c1ccccc1: 2
N=C(NCc1ccccc1)Nc1nc(-c2c[nH]c3ccc(OCc4ccccc4)cc23)cs1: 1.8

Record "COc1ccc2[nH]cc(-c3csc(N=C(N)N)n3)c2c1" ; system Potassium-transporting ATPase (Canis familiaris); IC50 = 19

Record "Cc1[nH]c2ccc(Cl)cc2c1-c1nc(N=C(N)N)sc1C" ; system Potassium-transporting ATPase (Canis familiaris); IC50 = 0.6

Record "N=C(NCc1ccccc1)Nc1nc(-c2cc3ccccc3[nH]2)cs1" ; system Potassium-transporting ATPase (Canis familiaris); IC50 = 16

Record "Cc1[nH]ccc1-c1nc(NC(=N)NCc2ccccc2)sc1C" ; system Potassium-transporting ATPase (Canis familiaris); IC50 = 8.8

Record "COc1ccccc1-c1csc(NC(=N)NCc2ccccc2)n1" ; system Potassium-transporting ATPase (Canis familiaris); IC50 = 2.3

Record "N=C(NCc1ccccc1)Nc1nc(-c2c[nH]c3ccccc23)cs1" ; system Potassium-transporting ATPase (Canis familiaris); IC50 = 1.5

Record "Cc1ccc(-c2csc(N=C(N)N)n2)[nH]1.O=C(O)/C=C\C(=O)O" ; system Potassium-transporting ATPase (Canis familiaris); IC50 = 45

Record "Cc1cc(-c2nc(NC(=N)NCCc3ccccc3)sc2C)c[nH]1" ; system Potassium-transporting ATPase (Canis familiaris); IC50 = 9.1

Record "Cc1[nH]c(-c2csc(N=C(N)N)n2)cc1CN(C)C" ; system Potassium-transporting ATPase (Canis familiaris); IC50 = 11

Record "Cc1cc(-c2csc(NC(=N)NCc3ccc(Cl)cc3)n2)c[nH]1" ; system Potassium-transporting ATPase (Canis familiaris); IC50 = 7

Record "N=C(N)Nc1nc(-c2c[nH]c3ccc(F)cc23)cs1" ; system Potassium-transporting ATPase (Canis familiaris); IC50 = 7.4

Record "Cc1sc(N=C(N)N)nc1-c1ccc(O)c(O)c1" ; system Potassium-transporting ATPase (Canis familiaris); IC50 = 1.6

Record "Cl.N=C(N)Nc1nc(-c2c[nH]c3ccc(Br)cc23)cs1" ; system Potassium-transporting ATPase (Canis familiaris); IC50 = 0.96

Record "Cc1ccc(C/N=C(\N)Nc2nc(-c3c[nH]c(C)c3)c(C)s2)cc1" ; system Potassium-transporting ATPase (Canis familiaris); IC50 = 2.9

Record "N=C(N)Nc1nc(-c2ccc(O)cc2)cs1" ; system Potassium-transporting ATPase (Canis familiaris); IC50 = 15

Record "N=C(NCc1ccccc1)Nc1nc(-c2ccccc2Cl)cs1" ; system Potassium-transporting ATPase (Canis familiaris); IC50 = 6

Record "N=C(N)Nc1nc(-c2ccc(N)cc2)cs1" ; system Potassium-transporting ATPase (Canis familiaris); IC50 = 32

----------
Tested on: Potassium-transporting ATPase (Canis familiaris)
protocol summary: Percent inhibition of gastric proton-pump enzyme H+/K+ ATPase was determined at 50 uM
test settings: Canis lupus familiaris, Stomach
Entries annotated with measured inhibition
Note: unit % is implicit; provide only the numeric part.

N=C(N)Nc1nc(-c2ccc[nH]2)cs1: 68

Per the records, this molecule ( "Cc1cc(-c2nc(NC(=N)Nc3ccccc3)sc2C)c[nH]1" ) has inhibition equal to 83

Per the records, this molecule ( "Cc1sc(N=C(N)N)nc1-c1ccc(O)c(O)c1" ) has inhibition equal to 97

Per the records, this molecule ( "COc1ccc(-c2csc(N=C(N)N)n2)cc1OC" ) has inhibition equal to 41

Per the records, this molecule ( "Cc1sc(NC(=N)NCc2ccccc2)nc1-c1c[nH]c2ccc(Cl)cc12" ) has inhibition equal to 101

----------
Test system: Potassium-transporting ATPase (Canis familiaris)
protocol summary: Percent inhibition of gastric proton-pump enzyme H+/K+ ATPase was determined at 50 uM
test settings: Canis lupus familiaris, Stomach
Entries annotated with measured inhibition

Solved cases (4 shown):
Cc1[nH]c2ccccc2c1-c1csc(N=C(N)N)n1: 85%
Cc1cc(-c2csc(NC(=N)NCc3ccccc3)n2)cn1S(=O)(=O)c1ccccc1: 69%
N/C(=N\Cc1ccccc1)Nc1nc(-c2ccc(N)cc2)cs1: 77%
N#Cc1ccc2[nH]cc(-c3csc(NC(=N)NCc4ccccc4)n3)c2c1: 50%

Record "N=C(NCc1ccccc1)Nc1nc(-c2c[nH]c3ccc(Cl)cc23)cs1" ; system Potassium-transporting ATPase (Canis familiaris); inhibition = 92%

Record "COC(=O)c1ccc2[nH]cc(-c3csc(NC(=N)NCc4ccccc4)n3)c2c1" ; system Potassium-transporting ATPase (Canis familiaris); inhibition = 94%

Record "CCCCCC/N=C(\N)Nc1nc(-c2c[nH]c(C)c2)cs1" ; system Potassium-transporting ATPase (Canis familiaris); inhibition = 93%

Record "CN(C)c1ccc(-c2csc(N=C(N)N)n2)cc1" ; system Potassium-transporting ATPase (Canis familiaris); inhibition = 75%

Record "Cc1ccc(C/N=C(\N)Nc2nc(-c3c[nH]c(C)c3)c(C)s2)cc1" ; system Potassium-transporting ATPase (Canis familiaris); inhibition = 95%

Record "Cc1cccc(-c2csc(N=C(N)N)n2)c1" ; system Potassium-transporting ATPase (Canis familiaris); inhibition = 60%

----------
System: Potassium-transporting ATPase (Canis familiaris)
protocol summary: Percent inhibition of gastric proton-pump enzyme H+/K+ ATPase was determined at 50 uM
test settings: Canis lupus familiaris, Stomach
// label = label 1 if inhibition is not less than 80%, otherwise label 0

Cc1sc(NC(=N)NCc2ccccc2)nc1-c1c[nH]c2ccccc12: label 0
Cc1ccc(-c2csc(N=C(N)N)n2)[nH]1.O=C(O)/C=C\C(=O)O: label 0
Cc1sc(N=C(N)N)nc1-c1c[nH]c2ccc(Cl)cc12: label 1
N=C(N)Nc1nc(-c2ccccc2Cl)cs1: label 0

Ask: Could you tell me if the measured inhibition of "N/C(=N\Cc1ccccc1)Nc1nc(-c2cccc(O)c2)cs1" reaches 80% or more?
Result: label 0

Ask: Could you tell me if the measured inhibition of "N=C(NCc1ccccc1)Nc1nc(-c2c[nH]c3ccccc23)cs1" reaches 80% or more?
Result: label 1

----------
System: Potassium-transporting ATPase (Canis familiaris)
protocol summary: Percent inhibition of gastric proton-pump enzyme H+/K+ ATPase was determined at 50 uM
test settings: Canis lupus familiaris, Stomach
Entries annotated with measured inhibition
Note: unit % is implicit; provide only the numeric part.

Solved cases (6 shown):
Cc1c(-c2csc(N=C(N)N)n2)ccn1S(=O)(=O)c1ccccc1: 101
N=C(N)Nc1nc(-c2c[nH]c3ccc(F)cc23)cs1: 90
N=C(NCc1ccccc1)Nc1nc(-c2cc3cc(Cl)ccc3[nH]2)cs1: 97
CC(=O)Nc1ccc2[nH]cc(-c3csc(NC(=N)NCc4ccccc4)n3)c2c1: 66
Cc1sc(NC(=N)NCc2ccccc2)nc1-c1ccc(O)c(O)c1: 103
N=C(N)Nc1nc(-c2ccc(Cl)cc2)cs1: 48

From here, focus on the item given below.
Per the records, this molecule ( "Cc1cc(-c2csc(NC(=N)NCc3ccccc3)n2)c[nH]1" ) has inhibition equal to 97

----------
Tested on: Potassium-transporting ATPase (Canis familiaris)
protocol summary: Percent inhibition of gastric proton-pump enzyme H+/K+ ATPase was determined at 50 uM
test settings: Canis lupus familiaris, Stomach
observed property: inhibition
Please provide the amount together with its unit, number first.

Solved cases (3 shown):
N=C(N)Nc1nc(-c2ccc(-c3ccccc3)cc2)cs1: 25%
Cc1sc(NC(=N)NCc2ccccc2)nc1-c1ccn(S(=O)(=O)c2ccccc2)c1C: 35%
Cc1ccc(-c2csc(NC(=N)NCc3ccccc3)n2)[nH]1: 83%

Per the records, this compound ( "N=C(N)Nc1nc(-c2cccc(O)c2)cs1" ) has inhibition equal to 69%

Per the records, this compound ( "CCCCC/N=C(\N)Nc1nc(-c2cccc(OC)c2)cs1" ) has inhibition equal to 25%

Per the records, this compound ( "N=C(N)Nc1nc(-c2cc[nH]c2)cs1" ) has inhibition equal to 68%

Per the records, this compound ( "COc1cccc(-c2csc(N=C(N)N)n2)c1" ) has inhibition equal to 48%
